Here, each record is paired with measured IC50 data.
- experimental target: CA (Human immunodeficiency virus type 1 group M subtype B)
- Construct: a fusion protein of CA with glutathione-S-transferase (CA-GST)
- assay summary: AlphaScreen: inhibition of CAI-biotin peptide binding to CA-GST
- test parameters: inhibition of CAI binding to CA (CA-GST fusion); compounds screened at 0.5-100 µM; read-out: α screen IC50
Counter-ions that a name gives are not always drawn.

Worked set:
> print(dat)
                                   molecule    result
1  CC(=O)c1cccc(Nc2cc(C)nc(-c3cccnc3)n2)c1 [AMR-830, hydrochloride]     10 µM
2  CC(=O)c1cccc(Nc2ccnc(-c3cccnc3)n2)c1 [AMR-726, hydrochloride]     39 µM
3  Fc1cc(Nc2cc(-c3cccnc3Cl)ncn2)cc(F)c1F [KP-373, hydrochloride]  > 100 µM
4  Cc1ccc(NC(=O)c2cccc(C(F)(F)F)c2)cc1Nc1ccnc(-c2cncc(Br)c2)n1 [KP-384, hydrochloride]  > 100 µM

Now consider the entry below.
// query Return reported IC50; argument: CCOC(=O)c1ccc(Nc2ccnc(-c3ccncc3)n2)cc1 [AMR-747, hydrochloride]
// result 28 µM

====

- experimental target: CA (Human immunodeficiency virus type 1 group M subtype B)
- Construct: a fusion protein of CA with glutathione-S-transferase (CA-GST)
- assay summary: AlphaScreen: inhibition of CAI-biotin peptide binding to CA-GST
- test parameters: inhibition of CAI binding to CA (CA-GST fusion); compounds screened at 0.5-100 µM; read-out: α screen IC50
- Experimental: The AlphaScreen experiments are performed using Perkin Elmer Enspire plate reader in white 96-well ProxiPlates and PBS supplemented with 0.05% Tween20, 2mM DTT, 2% DMSO. First, Streptavidin-coated Donor beads are used to capture the CAI-biotin peptide. […] To test the ability of prepared organic compounds to inhibit the CAI binding to CA, they are screened at concentrations between 0.5-100 µM and IC50 values are calculated from the influenced signals. […]
Where a name gives a salt, the structure may show the parent alone.
measurement type: IC50 (µM)
All answers are understood in µM, so give the number only.

Study these solved cases before continuing.
> print(dat)
                                   molecule  measurement.type  unit.spec  recorded.number
1  CCOC(=O)c1ccc(Nc2ccnc(-c3cccnc3)n2)c(F)c1 [AMR-823, hydrochloride]              IC50         µM               30
2  CCOC(=O)c1ccccc1Nc1ccnc(-c2cncc(Br)c2)n1 [KP-363, hydrochloride]              IC50         µM               58
3  O=C(NCC(F)(F)F)c1ccc(Nc2ccnc(-c3cccnc3)n2)cc1 [AMR-771, hydrochloride]              IC50         µM               55

// query Would you kindly share the measured IC50 for Fc1ccc(Nc2ccnc(-c3cccnc3)n2)cc1F [KP-343, dihydrochloride] ?
// result 38

// query Find the recorded IC50 belonging to Cn1nnc2cc(Nc3ccnc(-c4cncc(Br)c4)n3)ccc21 [KP-364, dihydrochloride] and report it.
// result 14

// query IC50 value for entry CCOC(=O)c1ccc(Nc2ccnc(-c3cccnc3)n2)cc1Cl [hydrochloride]
// result 31

// query Recorded IC50 of CC(=O)c1ccc(Nc2cc(C)nc(-c3cccnc3)n2)cc1 [AMR-794, hydrochloride] , please.
// result 12

// query Any idea what IC50 was measured for Fc1ccc(Nc2ccnc(-c3ccncc3)n2)cc1F [KP-360, dihydrochloride] ?
// result 81

// query What measured IC50 goes with Cc1cc(Nc2ccc(C(=O)NCCF)c(F)c2)nc(-c2cccnc2)n1 [AMR-828, hydrochloride] ?
// result 3

// query I'd like to know its IC50. The molecule in question is Cc1cc(Nc2ccc(C(=O)NCCF)cc2F)nc(-c2cccnc2)n1 [AMR-829, hydrochloride]
// result 15
